test system: IGROV1 ovarian; experiment: NCI tumour cell line growth inhibition, 48 h
Assay readout: TGI

Data request, read-out TGI, for Cn1nc(-c2ccccc2)c(C(=O)/C=C/c2ccc(F)cc2)c(N2CCOCC2)c1=O
39.3 µM

Now try N#CCCN(CCC#N)c1ccc(/C=C2\N=C(c3cc([N+](=O)[O-])ccc3Cl)N(NC(=O)CC(=O)Nc3ccccc3Cl)C2=O)cc1 .
> 100 µM

Another compound to look at: CC(Oc1ccccc1Cl)C(=O)NN1C(=O)CSC1c1ccc(Cl)cc1 (stereo not drawn)
43 µM

Also, Cc1cc(NNC(=O)c2ccccc2O)nc(Nc2nc3ccccc3o2)n1 please.
12.2 µM

Also need CC(=O)N=C1N(/C=C2\C(=O)Oc3ccccc3C2=O)C(=O)/C(=C/c2ccccc2Cl)N1C , thanks.
> 100 µM

Try O=C1C(Cl)C(c2cc3cc(Br)ccc3nc2Cl)N1c1c(Cl)cccc1Cl (stereo not drawn) next.
> 25 µM

Also need Cc1cc2c(cc1C)C(=O)/C(=N/Nc1ccc(F)cc1)CCO2 , thanks.
> 100 µM

Same again, this time with C1CCN2CC3CCCN4CCCC(C2C1)C34 (stereo not drawn)
> 100 µM

Queued: CC(=N)N(C)O
> 100 µM

Query N#Cc1cc(NC(=O)c2ccccc2)c(=O)n2c1[nH]c1ccccc12 next
> 100 µM

Okay, and C[N+](C)([O-])Cc1cc(-c2ccccc2)ccc1O ?
> 100 µM

Next record, please: CC(O)CN1c2ccccc2Sc2ccc(Cl)cc21 (stereo not drawn)
> 10 µM

Now try BrCC(Br)(c1ccccc1)c1ccccc1-c1cc(-c2ccccc2)cc(-c2ccccc2)n1 (stereo not drawn) .
19.4 µM

Ref: PubChem BioAssay (NCI)
